Reference source for all entries: patent US20240075137A1

Biological target: T1, human PVRIG on cells (human, UniProt Q6DKI7 1-326)
T1 construct: whole, on cells; over-expressed on HEK cells or endogenous on Jurkat and CD8 T cells; also called hPVRIG; HEK hPVRIG cells
T1 sequence (looked up): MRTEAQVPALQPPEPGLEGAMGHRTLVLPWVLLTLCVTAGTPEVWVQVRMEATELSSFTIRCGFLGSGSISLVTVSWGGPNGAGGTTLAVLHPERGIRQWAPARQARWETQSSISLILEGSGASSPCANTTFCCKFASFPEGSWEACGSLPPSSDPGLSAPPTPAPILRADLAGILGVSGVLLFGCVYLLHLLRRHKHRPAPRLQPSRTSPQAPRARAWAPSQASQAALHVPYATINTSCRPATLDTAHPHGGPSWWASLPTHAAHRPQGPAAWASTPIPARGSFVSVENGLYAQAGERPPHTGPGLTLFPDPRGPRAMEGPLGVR
Assay: FACS, HEK hPVRIG cells (HEK OE)
READOUT TYPE: EC50 (nM)
Just the number please, in nM, no unit attached.

Here is how some binders turned out for EC50.
- BINDER: "CHA.7.546 (antibody, V domains shown) VH: QIQLVQSGPELKKPGETVKISCKASGYTFTTYGMSWVKQAPGKGLKWMGWINTYSGVSTYADDFEGRFAFSLETSVSTAYLQINNLKNEDTATYFCARLGRGSTTGAGYLDVWGTGTTVTVSS VL: DIVLTQSPAIMSASPGEKVSMTCSASSSVSSWYLHWYQQKSGASPKLWIYGTSNLASGVPARFSGSGSGTSYSLTISSVEAEDAATYYCQQYHSDPYTFGSGTKLEIK"
  EC50 [nM]: 0.61
- BINDER: "CHA.7.550 (antibody, V domains shown) VH: QVQLQESGTELVKPGASVKLSCKASGYTFTSYWIHWVKQRPGQGLEWIGNINPSNGGTNYNEKFKSKAALTVDKSSSTAYMQLSSLTSEDSAVYYCARRGLPYFFDYWGQGTTLTVSS VL: DIVMTQSQKFMSTSVGDRVSVTCKGSQNVGYNVAWYQQKPGQSPKALVYSASDRHSGVPDRFAGSGSGTDFTLTISNVQSEDLAEYFCQQYNSYPLTFGAGTKLELK"
  EC50 [nM]: 1.34
- BINDER: "CHA.7.547 (antibody, V domains shown) VH: QIQLVQSGPDLKKPGETVKISCKASGYTFTTYGMSWVKQAPGRGLKWMGWINTYSGVSTFPDDFKGRFAFSLETSASTAYLQINNLKNEDSATYFCARLGMGSTTGAGYFDVWGTGTTVTVSS VL: ENVLTQSPAIMSASLGEKVTLSCRASSSVNYMYWYQQKSDASPKLWIYYTSNLAPGVPARFSGSGSGNSYSLTISSVEGEDAATYYCQQFTSSPWTFGGGTKLEIK"
  EC50 [nM]: 14.4

Lab note: CHA.7.544 (antibody, V domains shown) VH: QVQLKESGPGLVAPSQSLSITCTVSGFSLTSYAITWVRQPPGKGLEWLGVIWPGGGTNYNSALKSRLSISKDNSKSHLFLKMNSLQTDDTARYYCVRSYDGYLDWYFDVWGTGTTVTVSS VL: NIVMTQSPKSMSMSVGERVTLSCKASENVGTYVSWYQQKPDQSPKLLIYGASNRYTGVPDRFTGSGSATDFTLIISSVQAEDLSDYHCGQSYSYPYTFGGGTKLEII gave EC50 of 0.76
